Sourced from ChEMBL document CHEMBL1817626

Listed compounds paired with reported IC50
System: Vero
TEST PROTOCOL: Cytotoxicity against african green monkey Vero cells after 72 hrs by MTT assay
Type: cell-based
STATED CONDITIONS: Chlorocebus sabaeus
ENDPOINT LABEL: IC50 (µg/mL)

COMPOUND | SYSTEM UNDER TEST | ENDPOINT LABEL | UNIT NAME | RELATION SYMBOL | MEASURED
CC(CCc1ccccc1)NC(=O)Nc1cccc(C(F)(F)F)c1F (stereo unspecified) | Vero | IC50 | µg/mL | = | 38.5
CCCCCNC(=O)NC1C2CC3CC(C2)CC1C3 (stereo unspecified) | Vero | IC50 | µg/mL | = | 11.6
Cc1ccc(NC(=O)NC2CCCCCCC2)cc1Cl | Vero | IC50 | µg/mL | > | 400
O=C(Nc1cccc(C(F)(F)F)c1F)NC1CCCCCCC1 | Vero | IC50 | µg/mL | = | 25.3
Cc1ccc(NC(=O)NC(C)CCc2ccccc2)cc1Cl (stereo unspecified) | Vero | IC50 | µg/mL | > | 400
O=C(NCC12CC3CC(CC(C3)C1)C2)Nc1ccc(F)c(F)c1F | Vero | IC50 | µg/mL | = | 1.18

====

SYSTEM UNDER TEST: Bifunctional epoxide hydrolase 2 (Homo sapiens, UniProt P34913)
Sequence (P34913 whole entry): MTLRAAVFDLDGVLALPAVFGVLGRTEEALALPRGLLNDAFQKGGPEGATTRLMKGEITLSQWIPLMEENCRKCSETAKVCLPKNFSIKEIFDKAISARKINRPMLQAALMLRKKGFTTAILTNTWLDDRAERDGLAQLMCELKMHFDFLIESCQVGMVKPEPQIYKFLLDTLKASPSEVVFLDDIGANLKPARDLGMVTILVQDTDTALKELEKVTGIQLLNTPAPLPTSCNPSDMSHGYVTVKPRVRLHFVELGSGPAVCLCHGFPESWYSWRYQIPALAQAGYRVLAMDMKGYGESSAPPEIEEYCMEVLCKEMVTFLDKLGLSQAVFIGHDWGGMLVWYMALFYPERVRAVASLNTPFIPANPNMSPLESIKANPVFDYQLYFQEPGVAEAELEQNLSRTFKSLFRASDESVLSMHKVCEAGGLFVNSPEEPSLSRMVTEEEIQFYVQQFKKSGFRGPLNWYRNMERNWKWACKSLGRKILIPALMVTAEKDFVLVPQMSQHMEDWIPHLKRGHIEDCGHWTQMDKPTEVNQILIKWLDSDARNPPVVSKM
TEST PROTOCOL: Inhibition of human recombinant soluble epoxide hydrolase using CMNPC as substrate after 10 mins by fluorescent assay

COMPOUND | SYSTEM UNDER TEST | UNIT NAME | IC50
CCCCCCNC(=O)NC1C2CC3CC(C2)CC1C3 (stereo unspecified) | Bifunctional epoxide hydrolase 2 (Homo sapiens, UniProt P34913) | nM | 1
O=C(Nc1ccc(F)c(F)c1F)OC1C2CC3CC(C2)CC1C3 (stereo unspecified) | Bifunctional epoxide hydrolase 2 (Homo sapiens, UniProt P34913) | nM | 464
O=C(NCc1ccccc1)NC1C2CC3CC(C2)CC1C3 (stereo unspecified) | Bifunctional epoxide hydrolase 2 (Homo sapiens, UniProt P34913) | nM | 14.8
CC1C(NC(=O)Nc2ccc(F)c(F)c2F)CC2CC1C2(C)C (stereo unspecified) | Bifunctional epoxide hydrolase 2 (Homo sapiens, UniProt P34913) | nM | 0.4
CCCNC(=O)NC1C2CC3CC(C2)CC1C3 (stereo unspecified) | Bifunctional epoxide hydrolase 2 (Homo sapiens, UniProt P34913) | nM | 61.4
O=C(Nc1ccc(F)c(F)c1F)NC1CCCCC1 | Bifunctional epoxide hydrolase 2 (Homo sapiens, UniProt P34913) | nM | 1.2
O=C(Nc1ccccc1)Nc1ccccc1 | Bifunctional epoxide hydrolase 2 (Homo sapiens, UniProt P34913) | nM | 390
CCCCCCCNC(=O)NC1C2CC3CC(C2)CC1C3 (stereo unspecified) | Bifunctional epoxide hydrolase 2 (Homo sapiens, UniProt P34913) | nM | 0.5
O=C(Nc1ccc(F)c(F)c1F)NC1CCCC1 | Bifunctional epoxide hydrolase 2 (Homo sapiens, UniProt P34913) | nM | 56.2
CN(C(=O)N(C)C1C2CC3CC(C2)CC1C3)c1ccc(F)c(F)c1F (stereo unspecified) | Bifunctional epoxide hydrolase 2 (Homo sapiens, UniProt P34913) | nM | 1840
Cc1ccc(NC(=O)NCc2cccc(F)c2)cc1Cl | Bifunctional epoxide hydrolase 2 (Homo sapiens, UniProt P34913) | nM | 16.6
Fc1ccc(NC(=S)NC2C3CC4CC(C3)CC2C4)c(F)c1F (stereo unspecified) | Bifunctional epoxide hydrolase 2 (Homo sapiens, UniProt P34913) | nM | 4.8
COc1ccc(NC(=O)NC2C3CC4CC(C3)CC2C4)cc1 (stereo unspecified) | Bifunctional epoxide hydrolase 2 (Homo sapiens, UniProt P34913) | nM | 14.3
O=C(NC1CCCCC1)NC1C2CC3CC(C2)CC1C3 (stereo unspecified) | Bifunctional epoxide hydrolase 2 (Homo sapiens, UniProt P34913) | nM | 0.4
CCCCCNC(=O)NC1C2CC3CC(C2)CC1C3 (stereo unspecified) | Bifunctional epoxide hydrolase 2 (Homo sapiens, UniProt P34913) | nM | 6.4
CCCCCCCNC(=O)Nc1ccc(C)c(Cl)c1 | Bifunctional epoxide hydrolase 2 (Homo sapiens, UniProt P34913) | nM | 1.6
CC(C)NC(=O)NC1C2CC3CC(C2)CC1C3 (stereo unspecified) | Bifunctional epoxide hydrolase 2 (Homo sapiens, UniProt P34913) | nM | 84.4
Cc1ccc(NC(=O)NC2CCCCCCC2)cc1Cl | Bifunctional epoxide hydrolase 2 (Homo sapiens, UniProt P34913) | nM | 0.4
COCCCNC(=O)NC12CC3CC(CC(C3)C1)C2 | Bifunctional epoxide hydrolase 2 (Homo sapiens, UniProt P34913) | nM | 386
Cc1ccc(NC(=O)NC(C)CCc2ccccc2)cc1Cl (stereo unspecified) | Bifunctional epoxide hydrolase 2 (Homo sapiens, UniProt P34913) | nM | 15
CC(=O)c1cccc(NC(=O)NC2C3CC4CC(C3)CC2C4)c1 (stereo unspecified) | Bifunctional epoxide hydrolase 2 (Homo sapiens, UniProt P34913) | nM | 0.5
CN(C(=O)NC1C2CC3CC(C2)CC1C3)c1ccc(F)c(F)c1F (stereo unspecified) | Bifunctional epoxide hydrolase 2 (Homo sapiens, UniProt P34913) | nM | 38.1
O=C(Nc1cccc(C(F)(F)F)c1F)NC1CCCCCCC1 | Bifunctional epoxide hydrolase 2 (Homo sapiens, UniProt P34913) | nM | 0.4
N#Cc1ccc(NC(=O)NC2C3CC4CC(C3)CC2C4)cc1 (stereo unspecified) | Bifunctional epoxide hydrolase 2 (Homo sapiens, UniProt P34913) | nM | 1.1
Cc1c(Cl)cccc1NC(=O)NC1C2CC3CC(C2)CC1C3 (stereo unspecified) | Bifunctional epoxide hydrolase 2 (Homo sapiens, UniProt P34913) | nM | 4.5
COC(=O)c1ccc(NC(=O)NC23CC4CC(CC(C4)C2)C3)cc1O | Bifunctional epoxide hydrolase 2 (Homo sapiens, UniProt P34913) | nM | 1.2
